- EXPERIMENT DESCRIPTION: Aqueous solubility of the compound at pH 7.4
- CONDITION DETAILS: buffer
METRIC: solubility (µM)

# count of solved cases: 4
{"COMPOUND STRUCTURE STRING": "C[C@H](C#N)NC(=O)[C@@H]1CCCC[C@H]1C(=O)N1CCc2[nH]c3ccc(F)cc3c2C1", "EXPERIMENTAL RESULT": 460}
{"COMPOUND STRUCTURE STRING": "N#CC1(NC(=O)[C@@H]2CCCC[C@H]2C(=O)N2CCc3[nH]c4ccc(Cl)cc4c3C2)CC1", "EXPERIMENTAL RESULT": 130}
{"COMPOUND STRUCTURE STRING": "CC(C)(C)[C@@H](C#N)NC(=O)[C@@H]1CCCC[C@H]1C(=O)N1CCc2[nH]c3ccc(F)cc3c2C1", "EXPERIMENTAL RESULT": 74}
{"COMPOUND STRUCTURE STRING": "N#CC1(NC(=O)[C@@H]2CCCC[C@H]2C(=O)N2CCc3[nH]c4ccc(C(F)(F)F)cc4c3C2)CC1", "EXPERIMENTAL RESULT": 74}

[A] CCOc1cccc2c3c([nH]c12)CCN(C(=O)[C@@H]1CCCC[C@H]1C(=O)NC1(C#N)CC1)C3
[B] COc1ccc2[nH]c3c(c2c1)CN(C(=O)[C@@H]1CCCC[C@H]1C(=O)NC1(C#N)CC1)CC3
[C] N#CC1(NC(=O)[C@@H]2CCCC[C@H]2C(=O)N2CCc3[nH]c4c(F)cccc4c3C2)CC1
[D] N#CC1(NC(=O)[C@@H]2CCCC[C@H]2C(=O)N2CCc3[nH]c4cccc(F)c4c3C2)CC1
Input: Task field, ranking: reported solubility, descending order. Put the labels in the order asked and list them.
Output: B, C, A, D

---

- EXPERIMENT DESCRIPTION: Intrinsic clearance in rat liver microsomes assessed as metabolic turnover
METRIC: microsomal CLint (µL/min/mg)

# count of solved cases: 5
{"COMPOUND STRUCTURE STRING": "N#CCNC(=O)[C@@H]1CCCC[C@H]1C(=O)N1CCCCC1", "EXPERIMENTAL RESULT": 12}
{"COMPOUND STRUCTURE STRING": "N#CC1(NC(=O)[C@@H]2CCCC[C@H]2C(=O)N2CCc3[nH]c4c(OC(F)(F)F)cccc4c3C2)CC1", "EXPERIMENTAL RESULT": 53}
{"COMPOUND STRUCTURE STRING": "N#CCNC(=O)[C@@H]1CCCC[C@H]1C(=O)N1CC=CCC1", "EXPERIMENTAL RESULT": 41}
{"COMPOUND STRUCTURE STRING": "N#Cc1cccc2c3c([nH]c12)CCN(C(=O)[C@@H]1CCCC[C@H]1C(=O)NC1(C#N)CC1)C3", "EXPERIMENTAL RESULT": 80}
{"COMPOUND STRUCTURE STRING": "CC(C)(C)[C@@H](C#N)NC(=O)[C@@H]1CCCC[C@H]1C(=O)N1CCc2[nH]c3ccc(F)cc3c2C1", "EXPERIMENTAL RESULT": 195}

[1] N#CC1(NC(=O)[C@@H]2CCCC[C@H]2C(=O)N2CCc3[nH]c4ccc(C(F)(F)F)cc4c3C2)CC1
[2] N#CC1(NC(=O)[C@@H]2CCCC[C@H]2C(=O)N2CCc3[nH]c4c(Br)cccc4c3C2)CC1
Input: I need your help: which of the pair 1 , 2 has higher microsomal CLint? Answer with the label corresponding to your selection.
Output: 2

---

- TESTED ON: Cathepsin K (Homo sapiens, UniProt P43235)
- Sequence (P43235 whole entry): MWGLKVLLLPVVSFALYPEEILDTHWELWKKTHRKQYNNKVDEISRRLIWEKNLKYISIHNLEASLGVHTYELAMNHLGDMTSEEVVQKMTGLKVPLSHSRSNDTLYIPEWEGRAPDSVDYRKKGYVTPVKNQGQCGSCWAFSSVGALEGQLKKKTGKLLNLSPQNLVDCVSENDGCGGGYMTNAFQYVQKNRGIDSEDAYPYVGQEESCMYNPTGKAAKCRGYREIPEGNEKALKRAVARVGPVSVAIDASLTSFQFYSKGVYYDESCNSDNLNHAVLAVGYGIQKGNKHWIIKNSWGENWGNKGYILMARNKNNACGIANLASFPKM
- EXPERIMENT DESCRIPTION: Inhibition of human recombinant CatK assessed as suppression of enzyme-mediated Z-Phe-Arg-AMC cleavage incubated for 1 hrs by QFRET assay
METRIC: IC50 (nM)

# count of solved cases: 5
{"COMPOUND": "N#CC1(NC(=O)[C@@H]2CCCC[C@H]2C(=O)N2CCc3[nH]c4c(Br)cccc4c3C2)CC1", "UNIT": "nM", "IC50": 4}
{"COMPOUND": "CC(C)(C)[C@@H](C#N)NC(=O)[C@@H]1CCCC[C@H]1C(=O)N1CCc2[nH]c3ccc(F)cc3c2C1", "UNIT": "nM", "IC50": 785}
{"COMPOUND": "N#CC1(NC(=O)[C@@H]2CCCC[C@H]2C(=O)N2CCc3[nH]c4ncccc4c3C2)CC1", "UNIT": "nM", "IC50": 1}
{"COMPOUND": "N#CCNC(=O)[C@@H]1CCCC[C@H]1C(=O)N1CC=CCC1", "UNIT": "nM", "IC50": 18}
{"COMPOUND": "Cn1c2c(c3c(F)c(F)ccc31)CN(C(=O)[C@@H]1CCCC[C@H]1C(=O)NC1(C#N)CC1)CC2", "UNIT": "nM", "IC50": 3}

[1] CN1CCN(C(=O)[C@@H]2CCCC[C@H]2C(=O)NCC#N)CC1
[2] N#CC1(NC(=O)[C@@H]2CCCC[C@H]2C(=O)N2CCc3[nH]c4ccccc4c3C2)CC1
[3] N#CC(NC(=O)[C@@H]1CCCC[C@H]1C(=O)N1CCN(c2ccc(F)cc2)CC1)c1ccccc1 (stereo not given in full)
[4] CS(=O)(=O)c1cccc2c3c([nH]c12)CCN(C(=O)[C@@H]1CCCC[C@H]1C(=O)NC1(C#N)CC1)C3
[5] N#CC1(NC(=O)[C@@H]2CCCC[C@H]2C(=O)N2CCc3oc4ccccc4c3C2)CC1
Input: Exam item: list the entries in increasing order of IC50. Put the labels in the order asked and list them.
Output: 2, 3, 4, 5, 1

---

- EXPERIMENT DESCRIPTION: Intrinsic clearance in human liver microsomes assessed as metabolic turnover
METRIC: microsomal CLint (µL/min/mg)

{"COMPOUND STRUCTURE STRING": "COc1ccc2[nH]c3c(c2c1)CN(C(=O)[C@@H]1CCCC[C@H]1C(=O)NC1(C#N)CC1)CC3", "METRIC": "microsomal CLint", "EXPERIMENTAL RESULT": 29}
{"COMPOUND STRUCTURE STRING": "N#CC1(NC(=O)[C@@H]2CCCC[C@H]2C(=O)N2CCc3[nH]c4c(C(F)(F)F)cccc4c3C2)CC1", "METRIC": "microsomal CLint", "EXPERIMENTAL RESULT": 26}
{"COMPOUND STRUCTURE STRING": "N#CC1(NC(=O)[C@@H]2CCCC[C@H]2C(=O)N2CCc3[nH]c4cc(F)ccc4c3C2)CC1", "METRIC": "microsomal CLint", "EXPERIMENTAL RESULT": 36}

[1] N#CC1(NC(=O)[C@@H]2CCCC[C@H]2C(=O)N2CCc3[nH]c4ccc(C(F)(F)F)cc4c3C2)CC1
[2] CSc1cccc2c3c([nH]c12)CCN(C(=O)[C@@H]1CCCC[C@H]1C(=O)NC1(C#N)CC1)C3
[3] COc1cccc2c3c([nH]c12)CCN(C(=O)[C@@H]1CCCC[C@H]1C(=O)NC1(C#N)CC1)C3
[4] N#CC1(NC(=O)[C@@H]2CCCC[C@H]2C(=O)N2CCc3[nH]c4c(F)cccc4c3C2)CC1
[5] N#CCNC(=O)[C@@H]1CCCC[C@H]1C(=O)N1CCc2ccccc2C1
Input: Task field, ranking: reported microsomal CLint, descending order. Put the labels in the order asked and list them.
Output: 2, 4, 1, 5, 3
(2: 79 µL/min/mg, 4: 55 µL/min/mg, 1: 33 µL/min/mg, 5: 23 µL/min/mg, 3: 16 µL/min/mg)

---

- TESTED ON: Cathepsin B (Homo sapiens, UniProt P07858)
- EXPERIMENT DESCRIPTION: Inhibition of human recombinant CatB assessed as suppression of enzyme-mediated Z-Arg-Arg-AMC cleavage by QFRET assay
pIC50: −log10 of the molar value.
METRIC: pIC50

[P] CN1CCN(C(=O)[C@@H]2CCCC[C@H]2C(=O)NCC#N)CC1
[Q] N#CCNC(=O)[C@@H]1CCCC[C@H]1C(=O)N1CCc2[nH]c3ccc(F)cc3c2C1
Input: Field: lower pIC50 | Options: P / Q Answer with the label corresponding to your selection.
Output: P
(P: 5.12, Q: 5.85)

[I] N#CC1(NC(=O)[C@@H]2CCCC[C@H]2C(=O)N2CCc3[nH]c4ccc(F)cc4c3C2)CC1
[II] N#CCNC(=O)[C@@H]1CCCC[C@H]1C(=O)N1CCCCC1
Input: I need your help: which of the pair I , II has higher pIC50? Answer with the label corresponding to your selection.
Output: I
